# Measurement target: T1, human CD20 (human, UniProt P11836 1-297)
# T1 sequence: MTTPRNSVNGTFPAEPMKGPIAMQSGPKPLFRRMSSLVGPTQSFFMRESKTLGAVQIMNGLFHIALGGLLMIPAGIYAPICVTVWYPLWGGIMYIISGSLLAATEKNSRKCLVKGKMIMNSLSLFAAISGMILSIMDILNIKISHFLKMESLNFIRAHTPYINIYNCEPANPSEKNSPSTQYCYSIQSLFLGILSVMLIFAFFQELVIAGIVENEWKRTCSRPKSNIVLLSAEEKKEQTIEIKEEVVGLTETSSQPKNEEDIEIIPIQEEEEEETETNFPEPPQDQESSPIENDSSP
# Measurement notes: cell-based or functional assay
Measured attribute: % Cytotoxicity (CDC, Daudi), 6 hour (%)
Numbers only, in %.

The binder identified as 9C11-14 (antibody, V domains shown, Fully human IgG, constant region not specified; also called 9C11-14N) VH: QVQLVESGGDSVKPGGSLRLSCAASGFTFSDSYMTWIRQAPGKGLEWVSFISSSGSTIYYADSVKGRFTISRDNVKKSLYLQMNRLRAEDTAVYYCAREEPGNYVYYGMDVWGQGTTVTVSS VL: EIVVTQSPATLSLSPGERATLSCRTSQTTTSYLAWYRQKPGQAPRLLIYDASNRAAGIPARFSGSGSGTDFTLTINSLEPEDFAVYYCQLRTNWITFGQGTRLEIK registered its % Cytotoxicity (CDC, Daudi), 6 hour at 12.9
